System: Hydrochloric acid ulcer
Protocol Description: Hydrochloric acid ulcer inhibiting activity
Assay type: in vivo, wister rats
Measurement Context: rat; oral administration of 30 μg/kg; 0.6N hydrochloric acid; read-out: Hydrochloric acid ulcer inhibiting activity, Inhibiting rate

Compound	inhibition in vivo at 0.03 mg/kg, %
CCC#CCC(C)[C@H](O)/C=C/[C@@H]1[C@H]2CCC(COCCC(=O)O)=C[C@H]2C[C@H]1O (stereo partly shown)	21.3
CCCCC[C@H](O)/C=C/[C@@H]1[C@H]2CCC(CCCCC(=O)O)=C[C@H]2C[C@H]1O [(e)]	18.3
CCC#CCC(C)[C@H](O)/C=C/[C@@H]1[C@H]2CC=C(CCCCC(=O)O)C[C@H]2C[C@H]1O (stereo partly shown)	17.4
CCC#CCC(C)[C@H](O)/C=C/[C@@H]1[C@H]2CCC(CCOCC(=O)O)=C[C@H]2C[C@H]1O (stereo partly shown)	42.1
CCCCC[C@H](O)/C=C/[C@@H]1[C@H]2CCC(C=CCCC(=O)O)=C[C@H]2C[C@H]1O	13.5
CCC#CCC(C)[C@H](O)/C=C/[C@@H]1[C@H]2CCC(C=CCCC(=O)O)=C[C@H]2C[C@H]1O (stereo partly shown)	24.1
CCC#CCC(C)[C@H](O)/C=C/[C@@H]1[C@H]2CCC(CCCC(=O)O)=C[C@H]2C[C@H]1O (stereo partly shown)	54.8
CCCCC[C@H](O)/C=C/[C@H]1[C@H](O)CC(=O)[C@@H]1C/C=C\CCCC(=O)O [PGE2, reference compound]	61.6
CCC#CCC(C)[C@H](O)/C=C/[C@@H]1[C@H]2CCC(CCCCC(=O)O)=C[C@H]2C[C@H]1O (stereo partly shown)	20.5
CCCCC[C@H](O)/C=C/[C@@H]1[C@H]2CCC(CCCC(=O)O)=C[C@H]2C[C@H]1O	15.3

###

System: Blood platelet (ADP agglutination)
Protocol Description: Blood platelet agglutination inhibiting activity (ADP-induced), washed rabbit platelet suspension
Format: cell-based, rabbit (Japanese white male rabbits)
Measurement Context: relative to prostacyclin = 1
Description: Blood platelet aggutination inhibiting activity Japanese white male rabbits having a weight of from 2.0 to 2.5 kg were used. Under anesthesia with sodium Pentobarbital, blood was sampled from the carotid artery, and mixed with a 1/7 volume of an anticoagulant citric acid dextrose solution. […] The platelet agglutination ability was measured by means of an agglutination meter. […]
Measured Parameter: Activity ratio, platelet agglutination inhibiting activity, ADP agglutination

Compound	Target Entity	Value Observed
CCCCC[C@H](O)/C=C/[C@@H]1[C@H]2CCC(CCCCC(=O)O)=C[C@H]2C[C@H]1O [(e)]	Blood platelet (ADP agglutination)	1/100
CCC#CCC(C)[C@H](O)/C=C/[C@@H]1[C@H]2CCC(CCOCC(=O)O)=C[C@H]2C[C@H]1O (stereo partly shown) [(g)]	Blood platelet (ADP agglutination)	1/13
CCC#CCC(C)[C@H](O)/C=C/[C@@H]1[C@H]2CCC(CCCCC(=O)O)=C[C@H]2C[C@H]1O (stereo partly shown) [(f)]	Blood platelet (ADP agglutination)	1/8
CCC#CCC(C)[C@H](O)/C=C/[C@@H]1[C@H]2CCC(C=CCCC(=O)O)=C[C@H]2C[C@H]1O (stereo partly shown) [(d)]	Blood platelet (ADP agglutination)	1/3
CCCCC[C@H](O)/C=C/[C@@H]1[C@H]2CCC(C=CCCC(=O)O)=C[C@H]2C[C@H]1O [(c)]	Blood platelet (ADP agglutination)	1/17
CCCCC[C@H](O)/C=C/[C@@H]1[C@H]2CCC(CCCC(=O)O)=C[C@H]2C[C@H]1O [(a)]	Blood platelet (ADP agglutination)	1/455
CCC#CCC(C)[C@H](O)/C=C/[C@@H]1[C@H]2CCC(CCCC(=O)O)=C[C@H]2C[C@H]1O (stereo partly shown) [(b)]	Blood platelet (ADP agglutination)	1/27

###

Tested on: femoral artery
Protocol Description: Blood flow-increasing activity in the femoral artery, anesthetized dog
Type: in vivo, crossbred adult dog
Measurement Context: relative to prostacyclin = 1
Property: Activity ratio, blood flow-increasing activity in femoral artery; scope: individual compounds
Measured Parameter: Activity ratio, blood flow-increasing activity in femoral artery

Compound	Value Observed
CCC#CCC(C)[C@H](O)/C=C/[C@@H]1[C@H]2CCC(CCOCC(=O)O)=C[C@H]2C[C@H]1O (stereo partly shown) [(g)]	1/30
CCC#CCC(C)[C@H](O)/C=C/[C@@H]1[C@H]2CC=C(CCCCC(=O)O)C[C@H]2C[C@H]1O (stereo partly shown) [(i)]	1/23
CCC#CCC(C)[C@H](O)/C=C/[C@@H]1[C@H]2CCC(CCCC(=O)O)=C[C@H]2C[C@H]1O (stereo partly shown) [(b)]	1/15
CCC#CCC(C)[C@H](O)/C=C/[C@@H]1[C@H]2CCC(C=CCCC(=O)O)=C[C@H]2C[C@H]1O (stereo partly shown) [(d)]	1/38

###

Tested on: femoral artery
Protocol Description: Blood flow-increasing activity in the femoral artery, anesthetized dog
Assay type: in vivo, crossbred adult dog
Measurement Context: relative to prostacyclin = 1
Measured Parameter: Activity ratio, blood flow-increasing activity in femoral artery

Compound	Target Entity	Value Observed
CCCCC[C@H](O)/C=C/[C@@H]1[C@H]2CCC(CCCCC(=O)O)=C[C@H]2C[C@H]1O [(e)]	femoral artery	1/19
CCCCC[C@H](O)/C=C/[C@@H]1[C@H]2CCC(C=CCCC(=O)O)=C[C@H]2C[C@H]1O	femoral artery	1/23
CCC#CCC(C)[C@H](O)/C=C/[C@@H]1[C@H]2CCC(CCCCC(=O)O)=C[C@H]2C[C@H]1O (stereo partly shown)	femoral artery	1/23
CCCCC[C@H](O)/C=C/[C@@H]1[C@H]2CCC(CCCC(=O)O)=C[C@H]2C[C@H]1O	femoral artery	1/8

###

Recorded Activity ratio, blood flow-increasing activity in coronary artery for the following molecules
Tested on: coronary artery
Protocol Description: Blood flow-increasing activity in the coronary artery, anesthetized dog
Type: in vivo, crossbred adult dog
Measurement Context: relative to prostacyclin = 1
Measured Parameter: Activity ratio, blood flow-increasing activity in coronary artery

Molecule	Value Observed
CCC#CCC(C)[C@H](O)/C=C/[C@@H]1[C@H]2CCC(CCCCC(=O)O)=C[C@H]2C[C@H]1O (some centres unmarked)	1/269
CCC#CCC(C)[C@H](O)/C=C/[C@@H]1[C@H]2CC=C(CCCCC(=O)O)C[C@H]2C[C@H]1O (some centres unmarked)	1/360
CCCCC[C@H](O)/C=C/[C@@H]1[C@H]2CCC(CCCCC(=O)O)=C[C@H]2C[C@H]1O [(e)]	1/380
CCC#CCC(C)[C@H](O)/C=C/[C@@H]1[C@H]2CCC(CCOCC(=O)O)=C[C@H]2C[C@H]1O (some centres unmarked)	1/55
CCC#CCC(C)[C@H](O)/C=C/[C@@H]1[C@H]2CCC(C=CCCC(=O)O)=C[C@H]2C[C@H]1O (some centres unmarked)	1/38
CCC#CCC(C)[C@H](O)/C=C/[C@@H]1[C@H]2CCC(CCCC(=O)O)=C[C@H]2C[C@H]1O (some centres unmarked)	1/120
CCCCC[C@H](O)/C=C/[C@@H]1[C@H]2CCC(C=CCCC(=O)O)=C[C@H]2C[C@H]1O	1/210

###

Test system: coronary artery
Protocol Description: Blood flow-increasing activity in the coronary artery, anesthetized dog
Assay type: in vivo, crossbred adult dog
Measurement Context: Canis lupus familiaris; dog; near arterial injection; reactive hyperemia = 100%

Molecule	ED50, µg/kg
CCC#CCC(C)[C@H](O)/C=C/[C@@H]1[C@H]2CCC(C=CCCC(=O)O)=C[C@H]2C[C@H]1O (stereo partly shown) [(d)]	0.38
CCC#CCC(C)[C@H](O)/C=C/[C@@H]1[C@H]2CCC(CCCCC(=O)O)=C[C@H]2C[C@H]1O (stereo partly shown) [(f)]	1.75
CCC#CCC(C)[C@H](O)/C=C/[C@@H]1[C@H]2CCC(CCCC(=O)O)=C[C@H]2C[C@H]1O (stereo partly shown) [(b)]	1.2
CCCCC[C@H](O)/C=C/[C@@H]1[C@H]2CCC(CCCCC(=O)O)=C[C@H]2C[C@H]1O [(e)]	3.8
CCCCC[C@H](O)/C=C/[C@@H]1[C@H]2CCC(C=CCCC(=O)O)=C[C@H]2C[C@H]1O [(c)]	2.1
CCC#CCC(C)[C@H](O)/C=C/[C@@H]1[C@H]2CCC(CCOCC(=O)O)=C[C@H]2C[C@H]1O (stereo partly shown) [(g)]	0.55
CCC#CCC(C)[C@H](O)/C=C/[C@@H]1[C@H]2CC=C(CCCCC(=O)O)C[C@H]2C[C@H]1O (stereo partly shown) [(i)]	3.6

###

Test system: femoral artery
Protocol Description: Blood flow-increasing activity in the femoral artery, anesthetized dog
Type: in vivo, crossbred adult dog
Measurement Context: Canis lupus familiaris; dog; near arterial injection; papaverine hydrochloride 100 μg/kg = 100%
Measured ED50, listed per entry.
Measured Parameter: ED50 (µg/kg)

Molecule	Value Observed
CCC#CCC(C)[C@H](O)/C=C/[C@@H]1[C@H]2CCC(CCCC(=O)O)=C[C@H]2C[C@H]1O (some centres unmarked) [(b)]	0.35
CCC#CCC(C)[C@H](O)/C=C/[C@@H]1[C@H]2CCC(CCCCC(=O)O)=C[C@H]2C[C@H]1O (some centres unmarked) [(f)]	0.56
CCC#CCC(C)[C@H](O)/C=C/[C@@H]1[C@H]2CC=C(CCCCC(=O)O)C[C@H]2C[C@H]1O (some centres unmarked) [(i)]	0.56
CCC#CCC(C)[C@H](O)/C=C/[C@@H]1[C@H]2CCC(CCOCC(=O)O)=C[C@H]2C[C@H]1O (some centres unmarked) [(g)]	0.72
CCC#CCC(C)[C@H](O)/C=C/[C@@H]1[C@H]2CCC(C=CCCC(=O)O)=C[C@H]2C[C@H]1O (some centres unmarked) [(d)]	0.9
CCCCC[C@H](O)/C=C/[C@@H]1[C@H]2CCC(CCCC(=O)O)=C[C@H]2C[C@H]1O [(a)]	0.19
CCCCC[C@H](O)/C=C/[C@@H]1[C@H]2CCC(CCCCC(=O)O)=C[C@H]2C[C@H]1O [(e)]	0.46
CCCCC[C@H](O)/C=C/[C@@H]1[C@H]2CCC(C=CCCC(=O)O)=C[C@H]2C[C@H]1O [(c)]	0.56
